Tested on: K4 kissing-loop RNA reporter;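 also: bound reporter read as fluorescence of individual clusters on recovered sequencing chips by microscopy, with normalized cluster intensities fitted with a binding model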
Experiment summary: apparent KD of K4 kissing-loop reporter; higher = weaker reporter binding
Condition details: Eterna round: R107; input ligand: arginine 13.2 mM
Reported apparent KD of K4 kissing-loop reporter values for the following sequences.
// units = nM; emit number, no label

Q: Which apparent KD of K4 kissing-loop reporter is listed for AUGUAUGAAUUAGGAUAUCGUGAUCCAUGCAUAUAUAUGAUAAAUGGAUAUGUCGUAGUGAUGUUACGAGAAGGAGUGUGGAGUA [KL-XFMN-B1] ?
A: 71.5

Q: Which apparent KD of K4 kissing-loop reporter is listed for UUGUUUGGUUGAGAGGUUGGGCGAGAUGAUACCAGUAUAUAAGAAUACCCUUGGCAGCAUAAGAAAGAUAUAGUGAUGUUGUAUA [SSTheophA.M] ?
A: 379

Q: Which apparent KD of K4 kissing-loop reporter is listed for UGAUACCAGACUGAUACCAGCUAGUGAUGUUAGCUGAAACAGGAACAGGCAAAGCCUGCUAGCCCUUGGCAGCAGUCUGGUAUCU [TheoBX 11 #SwitchBubble #StaticStem] ?
A: 90.6
